Values were extracted from the supplement of paper PMC12667976.

B1: library; numbered along this chain (parent)
chain: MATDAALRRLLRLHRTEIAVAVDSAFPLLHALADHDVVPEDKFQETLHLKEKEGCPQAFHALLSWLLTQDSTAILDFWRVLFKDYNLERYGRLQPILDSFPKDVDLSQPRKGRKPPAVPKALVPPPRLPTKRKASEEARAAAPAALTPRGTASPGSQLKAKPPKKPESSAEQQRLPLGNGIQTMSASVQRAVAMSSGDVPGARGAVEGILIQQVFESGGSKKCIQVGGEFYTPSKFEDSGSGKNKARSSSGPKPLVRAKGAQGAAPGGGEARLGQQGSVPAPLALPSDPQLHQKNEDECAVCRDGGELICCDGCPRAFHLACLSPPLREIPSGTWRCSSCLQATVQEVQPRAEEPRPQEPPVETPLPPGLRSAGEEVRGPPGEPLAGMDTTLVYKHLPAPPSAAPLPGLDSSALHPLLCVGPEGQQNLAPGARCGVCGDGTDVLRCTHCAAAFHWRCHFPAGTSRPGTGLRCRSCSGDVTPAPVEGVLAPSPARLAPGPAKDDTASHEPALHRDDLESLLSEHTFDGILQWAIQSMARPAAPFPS

- Variants of: B1
- experimentNotes: AIRE transcriptional activation functional score (insulin promoter-GFP; nonsense median 0, synonymous median 1) (normalised score); higher = higher AIRE activity (more reporter activation)
- assaySetup: with insulin promoter-GFP reporter in HEK293
readout: AIRE transcriptional activation functional score

- variantDescription: "C419F"
  result: 1.64
- variantDescription: "L7F"
  result: -0.323
- variantDescription: "F43G"
  result: 0.413
- variantDescription: "R190K"
  result: 0.53
- variantDescription: "A321Q"
  result: 1.11

### Prompt What value of AIRE transcriptional activation functional score has been reported for the following variant? R473T
### Response 1.06

### Prompt Could you do the same for D442P , please?
### Response 0.0269

### Prompt Could you do the same for K164V , please?
### Response 0.666

### Prompt Could you do the same for E522D , please?
### Response 0.925

### Prompt Could you do the same for P200K , please?
### Response 0.571

### Prompt Could you do the same for F77H , please?
### Response 0.528

### Prompt Could you do the same for P460D , please?
### Response 0.0955

### Prompt Could you do the same for Q172F , please?
### Response 1.82

### Prompt Could you do the same for P326F , please?
### Response 1.72

### Prompt Could you do the same for L444A , please?
### Response 0.718

### Prompt Could you do the same for P367K , please?
### Response 1.04

### Prompt Could you do the same for D442G , please?
### Response 1.08

### Prompt Could you do the same for G112F , please?
### Response 1.03

### Prompt Could you do the same for C419P , please?
### Response 1.24
